Form field: growth at 10 µM (one value per entry).
System: NCI-H460
Assay: Cytotoxicity against Homo sapiens (human) NCI-H460 assessed as cell growth at 10 uM after 48 hr by SRB assay relative to control
Format: functional
Details: NCI-H460, 48 h, read-out: Activity
Your answer should be a plain number; it is taken to be in %.

Previously resolved entries follow.
Oc1c(-c2nnc(-c3ccc(Cl)cc3)o2)sc2nnc(-c3ccccc3)c(-c3ccccc3)c12
27.4
CCOC(=O)c1c(Nc2ccc(S(N)(=O)=O)cc2)nnc(-c2ccccc2)c1-c1ccccc1
108
CCOC(=O)c1c(Nc2ccc(S(=O)(=O)Nc3nccs3)cc2)nnc(-c2ccccc2)c1-c1ccccc1
111
CC(=O)Oc1c(C2=NN(C(C)=O)C(c3ccccc3[N+](=O)[O-])O2)sc2nnc(-c3ccccc3)c(-c3ccccc3)c12 (stereo not drawn)
100
Oc1c(-c2n[nH]c(=S)o2)sc2nnc(-c3ccccc3)c(-c3ccccc3)c12
116
CC(=O)Oc1c(C2=NN(C(C)=O)C(c3ccc(F)cc3)O2)sc2nnc(-c3ccccc3)c(-c3ccccc3)c12 (stereo not drawn)
101
Oc1c(-c2nnc(SCc3ccccc3)o2)sc2nnc(-c3ccccc3)c(-c3ccccc3)c12
111

// next item, growth at 10 µM requested
# growth at 10 µM lookup, item CNc1nnc(-c2sc3nnc(-c4ccccc4)c(-c4ccccc4)c3c2O)s1
106
